Origin of measurements: patent US9000022B2

Here, each record is paired with measured IC50 or EC50 (potency, activation or inhibition) data.
Test system: LXRα and/or LXRβ
Assay: Co-transfection assay (LXRE luciferase reporter, CV-1 cells)
Type: cell-based, human
Conditions: tested as described in Example 33; IC50 or EC50 for LXRα and/or LXRβ, isoform not specified; read-out: activity (IC50 or EC50 for LXR)

Examples with their reported IC50 or EC50 (potency, activation or inhibition) follow.
1) CC(C)(O)c1cn(-c2ccc(-c3cccc(S(N)(=O)=O)c3)cc2)c(-c2ccccc2Cl)n1	1000 to 10000 nM
2) CS(=O)(=O)c1cccc(-c2ccc(-n3cc(C(=O)NCC(F)(F)F)nc3-c3ccccc3Cl)cc2)c1	< 1000 nM
3) FC(F)(F)CNC(=S)c1cn(-c2ccc(Br)cc2)c(-c2ccccc2Cl)n1	1000 to 10000 nM
4) CC(C)(O)c1cn(-c2ccc(-c3cccc(S(C)(=O)=O)c3)cc2F)c(-c2c(Cl)cccc2Cl)n1	< 1000 nM

Provide value of IC50 or EC50 (potency, activation or inhibition) for this record tested with LXRα and/or LXRβ: `Cc1cc(-c2cccc(S(C)(=O)=O)c2)ccc1-n1cc(C(=O)NCC(F)(F)F)nc1-c1ccccc1C(C)C`
< 1000 nM

I'm curious: which IC50 or EC50 (potency, activation or inhibition) was measured for `CCS(=O)(=O)c1cccc(-c2ccc(-n3cc(C(C)(C)O)nc3-c3ccccc3C(F)(F)F)cc2F)c1` tested on LXRα and/or LXRβ?
< 1000 nM

* * *

System: LXRα and/or LXRβ
Assay: Co-transfection assay (LXRE luciferase reporter, CV-1 cells)
Format: cell-based, human
Settings: tested as described in Example 33; IC50 or EC50 for LXRα and/or LXRβ, isoform not specified; read-out: activity (IC50 or EC50 for LXR)
Measured IC50 or EC50 (potency, activation or inhibition) values are reported for all entries that follow.

Worked examples, 4 compounds total:
1. CS(=O)(=O)c1cccc(-c2ccc(-n3cc(C(=S)NCC(F)(F)F)nc3-c3ccccc3Cl)cc2)c1	< 1 µM
2. CC(C)c1ccccc1-c1nc(C(C)(C)O)cn1-c1ccc(-c2cccc(S(C)(=O)=O)c2)cc1Cl	< 1 µM
3. Cc1cc(-c2ccc(-n3cc(C(C)(C)O)nc3-c3c(Cl)cccc3Cl)cc2)cc(S(C)(=O)=O)c1	1 to 10 µM
4. CC(C)(O)c1cn(-c2ccc(-c3ccc(CO)c(S(C)(=O)=O)c3)cc2Cl)c(-c2cccc3ccccc23)n1	< 1 µM

Recorded IC50 or EC50 (potency, activation or inhibition) for `CC(C)(O)c1nc(-c2ccccc2C(F)(F)F)n(-c2ccc(-c3cccc(S(C)(=O)=O)c3)cc2)c1Cl` , please?
< 1 µM

I am curious: what IC50 or EC50 (potency, activation or inhibition) value has been reported for `CC(C)(O)c1cn(-c2ccc(-c3cccc(S(C)(=O)=O)c3)cc2)c(-c2c(F)cccc2Cl)n1` ?
1 to 10 µM

Find the recorded IC50 or EC50 (potency, activation or inhibition) belonging to `CC(C)(O)c1cn(-c2ccc(-c3ccc(CO)c(S(C)(=O)=O)c3)cc2Cl)c(-c2ccccc2Cl)n1` and report it.
< 1 µM
